- Test system: LNCAP cells
- protocolNotes: In vitro proliferation assay, LNCaP (Example 8)
- Type: cell-based, human
- setupConditions: free MTX; LNCaP, RPMI + 10% FCS, 48 hours with drug; IGF-MTX as concentration of MTX groups
- Procedure: LNCaP, MCF7 and MCF7-L cell lines were plated, respectively, in a 96-well plate at 5,000 cells per well in RPMI+glutamine+10% FCS medium in 100 μl. After 24 hours, 100 μl fresh medium was added containing no drug (control), IGF-MTX or MTX at the indicated concentration.
pIC50: −log10 of the molar value.
measuredAttribute: pIC50

Can you look up the measured pIC50 of CN(Cc1cnc2nc(N)nc(N)c2n1)c1ccc(C(=O)N[C@@H](CCC(=O)O)C(=O)O)cc1 [methotrexate] for me?
~6.40
